# assayed-system: C5aR (Homo sapiens (Human))
# Sequence (P21730 whole entry): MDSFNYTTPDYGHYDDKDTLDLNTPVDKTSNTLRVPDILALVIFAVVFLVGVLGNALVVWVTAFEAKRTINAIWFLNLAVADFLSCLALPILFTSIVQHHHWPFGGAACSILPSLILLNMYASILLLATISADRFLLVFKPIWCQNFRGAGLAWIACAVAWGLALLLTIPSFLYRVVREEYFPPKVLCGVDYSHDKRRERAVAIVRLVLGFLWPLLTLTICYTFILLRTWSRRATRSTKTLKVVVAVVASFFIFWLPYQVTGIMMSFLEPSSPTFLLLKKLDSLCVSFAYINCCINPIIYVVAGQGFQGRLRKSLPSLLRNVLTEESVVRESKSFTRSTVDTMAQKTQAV
# experimental-details: Calcium mobilization (U937/C5aR or HEK293/C5aR cells, FLIPR)
# Assay type: cell-based
# applied-conditions: agonist human C5a at EC80, FLIPR
Item-by-item account of IC50

{"compound": "Cc1cccc(F)c1C(=O)N1C2CCC[C@@H]2C[C@H](C(=O)Nc2cccc(Cl)c2)[C@@H]1c1ccc(NC2CCCC2)cc1 (relative stereo) [Compound 55]", "assayed-system": "C5aR (Homo sapiens (Human))", "IC50": "500 to 2000 nM"}

-- ask Which IC50 reading was recorded for the compound Cc1ccc(NC(=O)[C@H]2CCCN[C@H]2c2ccc(N(c3nccc4cccnc34)C3CCCC3)cc2)cc1C(F)(F)F [Compound 168] ?
-- reply 2000 to 10000 nM

-- ask Which IC50 reading was recorded for the compound Cc1ccc(NC(=O)[C@H]2CCCN(S(=O)(=O)c3ccc4ccccc4c3)[C@H]2c2ccc(NC3CCCC3)cc2)cc1C(F)(F)F [Compound 32] ?
-- reply 2000 to 10000 nM
